Molecular target: full length recombinant Pim-2 (Homo sapiens (Human), UniProt Q9P1W9)
Sequence (Q9P1W9 whole entry): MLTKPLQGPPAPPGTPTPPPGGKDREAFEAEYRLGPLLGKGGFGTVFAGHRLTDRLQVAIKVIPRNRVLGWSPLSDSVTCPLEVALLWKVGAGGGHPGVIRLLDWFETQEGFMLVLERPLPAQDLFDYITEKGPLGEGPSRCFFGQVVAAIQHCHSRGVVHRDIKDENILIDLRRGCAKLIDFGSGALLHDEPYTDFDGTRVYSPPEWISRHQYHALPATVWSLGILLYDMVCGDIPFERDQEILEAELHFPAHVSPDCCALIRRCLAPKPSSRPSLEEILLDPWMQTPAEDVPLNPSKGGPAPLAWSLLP
Assay: Pim enzyme assay (HTRF, phosphorylation of biotinylated-BAD (S112) peptide), Pim-2
Assay type: biochemical
Settings: Pim-2 enzyme assay; read-out: Pim2_IC50
MEASUREMENT_NAME: IC50 (nM)
Report the value in nM with no unit label.

Nc1nnc(-c2ccc3[nH]cc(-c4cccc(-n5cccn5)n4)c3c2)s1 = 49.5

Now look at this one.
The reported full length recombinant Pim-2 (Homo sapiens (Human), UniProt Q9P1W9) IC50 of "Nc1nnc(-c2ccc3[nH]cc(-c4cc(C(F)(F)F)ncn4)c3c2)o1" is 838

* * *

Reported IC50 values for a set of compounds
Target: full length recombinant Pim-2 (Homo sapiens (Human), UniProt Q9P1W9)
Test: Pim enzyme assay (HTRF, phosphorylation of biotinylated-BAD (S112) peptide), Pim-2
Format: biochemical
Details: Pim-2 enzyme assay; read-out: Pim2_IC50

Brc1nnc(-c2ccc3[nH]cc(-c4cccc(N5CCOCC5)n4)c3c2)s1 = > 3 µM

Note to self: IC50 recorded for "CNc1nnc(-c2ccc3[nH]cc(-c4cccc(-c5ccccc5)c4)c3c2)s1" was > 3 µM

Note to self: IC50 recorded for Nc1nnc(-c2ccc3[nH]cc(-c4cccc(N5CCCC5)n4)c3c2)s1 [Example 14] was 0.042 µM

* * *

Target: full length recombinant Pim-3 (Homo sapiens (Human), UniProt Q86V86)
Test: Pim enzyme assay (HTRF, phosphorylation of biotinylated-BAD (S112) peptide), Pim-3
Type: biochemical
Details: Pim-3 enzyme assay; read-out: Pim3 IC50
Reported pIC50 values for a set of compounds
On this scale, pIC50 is minus log10 of a concentration expressed in M (mol/L).

Below, each entry is followed by its recorded pIC50 result.
CC1CCCN1c1ccnc(-c2c[nH]c3ccc(-c4nnc(N)o4)cc23)n1 (stereo not shown) = 8.91
C[C@@H]1CCCN(c2cccc(-c3c[nH]c4ccc(-c5nnc(N)s5)cc34)n2)C1 (stereo in doubt) = 7.63
CC(C)Nc1cncc(-c2c[nH]c3ccc(-c4nnc(N)o4)cc23)n1 = 9.05

Now look at this one.
Note to self: pIC50 recorded for "Nc1ncc(-c2ccc3[nH]cc(-c4cnc5ccccc5c4)c3c2)s1" was 6.57

* * *

Reported IC50 values for a set of compounds
Molecular target: full length recombinant Pim-3 (Homo sapiens (Human), UniProt Q86V86)
Test: Pim enzyme assay (HTRF, phosphorylation of biotinylated-BAD (S112) peptide), Pim-3
Assay type: biochemical
Settings: Pim-3 enzyme assay; read-out: Pim3 IC50
Report the value in nM with no unit label.

Below, each entry is followed by its recorded IC50 result.
COc1cncc(-c2c[nH]c3ccc(-c4nnc(N)s4)cc23)c1 = 165
Cc1nnc(-c2ccc3[nH]cc(-c4cccc(OC(C)C)n4)c3c2)o1 = 10

Note to self: IC50 recorded for "Cc1[nH]c2ccc(CNc3nnc(-c4ccc5[nH]cc(-c6ccc(F)cc6F)c5c4)s3)cc2c1C" was 634

* * *

Reported IC50 values for a set of compounds
Biological target: full length recombinant Pim-2 (Homo sapiens (Human), UniProt Q9P1W9)
Assay: Pim enzyme assay (HTRF, phosphorylation of biotinylated-BAD (S112) peptide), Pim-2
Assay type: biochemical
Settings: Pim-2 enzyme assay; read-out: Pim2_IC50
Report the value in nM with no unit label.

COc1nc(-c2c[nH]c3ccc(-c4nnc(NC(C)C)o4)cc23)nc(C)c1F = 106
c1cc2[nH]cc(-c3cncc(C4CC4)n3)c2cc1-c1nnc(N2CCNCC2)o1 = 21.5
NCCCNc1nnc(-c2ccc3[nH]cc(-c4ccccc4F)c3c2)s1 = 155
Nc1nnc(-c2ccc3[nH]cc(-c4cccc(F)c4F)c3c2)o1 = 164
COCC(=O)Nc1cccc(CNc2nnc(-c3ccc4[nH]cc(-c5ccccc5F)c4c3)s2)c1 = 2510
COc1cc(-c2c[nH]c3ccc(-c4nnc(N)s4)cc23)nc(OC)n1 = 87.5
CCc1nc(-c2c[nH]c3ccc(-c4nnc(NC(C)(C)C)o4)cc23)ncc1F = 21
Nc1nnc(-c2ccc3[nH]cc(-c4cncc(NCC5CC5)n4)c3c2)o1 = 2.07

Note to self: IC50 recorded for "Nc1nnc(-c2ccc3[nH]cc(-c4cncc(N5CCCCC5)n4)c3c2)o1" was 4.77

Note to self: IC50 recorded for "CNc1nnc(-c2ccc3[nH]cc(-c4cccc(N5CCCCC5=O)n4)c3c2)s1" was 538

Note to self: IC50 recorded for "Nc1nnc(-c2ccc3[nH]cc(-c4cc(C(=O)Nc5ccccc5)ccc4F)c3c2)s1" was 237

Note to self: IC50 recorded for "Nc1nnc(-c2ccc3[nH]cc(-c4cccc(NC5CCCCC5)n4)c3c2)s1" was 227

Note to self: IC50 recorded for "CNc1nnc(-c2ccc3[nH]cc(-c4nccc(N5CCC[C@H](N)C5)n4)c3c2)s1" was 1.53

Note to self: IC50 recorded for "CC(=O)Nc1cccc(CNc2nnc(-c3ccc4[nH]cc(-c5ccccc5F)c4c3)s2)c1" was 2170
